# target.entity: T1, 4H2944-AA
# T1 chain: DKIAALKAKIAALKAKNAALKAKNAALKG
# measurement.description: two-hybrid library CCmax;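 further: natural log of median RNA to DNA barcode read ratio; higher means stronger binding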
# stated.conditions: mean of both orientations
Catalogue of interaction score values

{"binder": "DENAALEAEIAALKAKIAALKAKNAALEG [4H1135-AA]", "interaction score": -1.57}
{"binder": "DKIAALEAEIAALKAKIAALEAKNAALEG [4H2151-AA]", "interaction score": -1.39}
{"binder": "DKIAALEAKIAALEAKNAALEAEIAALKG [4H2354-AA]", "interaction score": -1.22}
{"binder": "DENAALKAEIAALKAKIAALEAENAALKG [4H1636-AA]", "interaction score": -1.81}
{"binder": "DEIAALEAENAALKAKIAALKAEIAALKG [4H234-AA]", "interaction score": -1.71}
{"binder": "DENAALEAEIAALEAKNAALKAKIAALKG [4H1086-AA]", "interaction score": -1.29}
{"binder": "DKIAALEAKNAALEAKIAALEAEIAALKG [4H2466-AA]", "interaction score": -1.57}
